Target: mouse 11β-HSD1 (Mus musculus, UniProt P50172)
Sequence (P50172 whole entry): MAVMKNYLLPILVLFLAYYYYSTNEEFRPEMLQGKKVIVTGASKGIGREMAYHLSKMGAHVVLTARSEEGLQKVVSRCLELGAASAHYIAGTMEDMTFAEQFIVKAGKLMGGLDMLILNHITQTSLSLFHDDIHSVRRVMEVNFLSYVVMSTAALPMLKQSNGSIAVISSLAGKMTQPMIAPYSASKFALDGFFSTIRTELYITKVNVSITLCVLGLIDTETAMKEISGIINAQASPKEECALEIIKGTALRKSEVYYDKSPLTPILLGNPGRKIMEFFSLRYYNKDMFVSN
Experiment Summary: scintillation proximity assay (SPA), microsomes of HEK-293 cells transfected with mouse 11β-HSD1
Assay Context: Table 3; SI = IC50(HSD2)/IC50(HSD1), mouse
Experimental Endpoint: Mouse SI (selectivity index)

Known results for molecules:
{"Molecule": "Cc1coc2c1C(=O)C(=O)c1c-2ccc2c1C=CC(=O)C2(C)C", "Mouse SI (selectivity index)": "> 1855.3"}
{"Molecule": "Cc1coc2c1C(=O)C(=O)c1c-2ccc2c1CCC(=O)C2(C)C", "Mouse SI (selectivity index)": "> 14,492.7"}
{"Molecule": "C[C@@H](CO)C1=C(N)c2ccc3c(c2C(=O)C1=O)CCCC3(C)C", "Mouse SI (selectivity index)": "> 105.3"}

In the following, a different molecule is considered.
Write down Mouse SI (selectivity index) measured for item Cc1c(-c2ccncc2)oc2c1C(=O)C(=O)c1c-2ccc2c1CCCC2(C)C [Compound 27c]
> 1451.4
